target: human orexin-1 receptor (Homo sapiens (Human), UniProt O43613)
Sequence (O43613 whole entry): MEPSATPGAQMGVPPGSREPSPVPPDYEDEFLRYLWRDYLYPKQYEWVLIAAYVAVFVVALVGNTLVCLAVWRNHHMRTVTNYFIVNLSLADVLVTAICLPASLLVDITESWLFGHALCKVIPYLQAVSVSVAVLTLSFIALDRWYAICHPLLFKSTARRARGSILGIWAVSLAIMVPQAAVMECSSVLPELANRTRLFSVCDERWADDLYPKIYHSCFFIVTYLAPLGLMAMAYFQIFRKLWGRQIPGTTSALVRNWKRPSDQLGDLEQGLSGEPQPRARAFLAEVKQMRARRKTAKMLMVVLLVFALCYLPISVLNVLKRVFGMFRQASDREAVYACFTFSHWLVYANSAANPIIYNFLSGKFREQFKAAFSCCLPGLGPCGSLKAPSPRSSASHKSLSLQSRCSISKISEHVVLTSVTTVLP
assay protocol: In vitro assay: intracellular calcium measurements (FLIPR), antagonistic activity
cond: CHO cells expressing human orexin-1 receptor, orexin-A agonist, geometric mean, read-out: IC50 Ox1
Experimental: In Vitro Assay: Intracellular Calcium Measurements: […] Within the Fluorescent Imaging Plate Reader (FLIPR Tetra, Molecular Devices), antagonists are added to the plate in a volume of 10 μl/well, incubated for 120 min and finally 10 μl/well of agonist is added. […] The calculated IC50 values may fluctuate depending on the daily cellular assay performance. […]
Reported IC50 values follow for various molecules
Field: numeric (nM). Do not append units.

Here's what some known entries look like.
| compound | IC50 [nM] |
| --- | --- |
| Cc1ccc(-c2cccc(F)c2)c(C(=O)N2CCC[C@@]2(C)c2nc3cc(C(F)(F)F)c(Cl)cc3[nH]2)c1 | 22 |
| Cc1cc2[nH]c([C@@H]3[C@@H](C)CCN3C(=O)c3c(-c4ccccc4)ccc(C)c3F)nc2cc1Cl | 7 |
| C=C1C[C@@H](c2nc3cccc(C)c3[nH]2)N(C(=O)c2cc(Cl)ccc2-n2nccn2)C1 | 364 |
| C=C1C[C@@H](c2nc3c(C)cccc3[nH]2)N(C(=O)c2nc(C)sc2-c2cccc(Cl)c2)C1 | 10 |
| COc1ccc(-n2nccn2)c(C(=O)N2CCC[C@@]2(C)c2nc3cc(C)c(C)cc3[nH]2)c1 | 33 |

# input molecule: "Cc1ccc(-n2nccn2)c(C(=O)N2CCC[C@@]2(C)c2nc3cc(F)c(Br)cc3n2C)c1" ; wanted: its IC50
# output 7

# input # repeat for "Cc1cc2[nH]c([C@@H]3[C@@H](C)CCN3C(=O)c3cc(Cl)ccc3-n3nccn3)nc2cc1Cl"
# output 7

Data credit: patent US9732075B2
